Biological target: T1, human SPNS2 (human, UniProt Q8IVW8 1-549)
T1 sequence: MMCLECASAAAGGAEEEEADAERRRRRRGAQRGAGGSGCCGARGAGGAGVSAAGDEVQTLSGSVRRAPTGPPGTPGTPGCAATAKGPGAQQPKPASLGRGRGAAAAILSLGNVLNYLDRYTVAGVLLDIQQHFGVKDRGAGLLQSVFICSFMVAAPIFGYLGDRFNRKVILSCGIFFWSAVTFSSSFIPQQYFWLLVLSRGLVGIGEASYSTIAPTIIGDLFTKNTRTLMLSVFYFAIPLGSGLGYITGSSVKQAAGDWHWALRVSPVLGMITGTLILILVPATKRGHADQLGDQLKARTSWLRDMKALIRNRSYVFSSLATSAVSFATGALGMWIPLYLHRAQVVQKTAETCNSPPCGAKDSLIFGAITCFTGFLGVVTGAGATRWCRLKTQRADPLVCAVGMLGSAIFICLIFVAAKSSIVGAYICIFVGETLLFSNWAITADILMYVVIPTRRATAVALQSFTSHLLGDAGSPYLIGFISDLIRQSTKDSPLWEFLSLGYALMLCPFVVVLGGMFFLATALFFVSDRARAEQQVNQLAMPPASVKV
Assay: cell-based or functional assay
MEASUREMENT_KIND: pIC50, S1P transport inhibition (LC-MS/MS of S1P)

Answered cases to consult:
BINDER	ENDPOINT_RESULT
80-1104A (antibody, IgG2b, V domains shown) VH: EVQLVETGGGLVQPGSSLKLSCSTSGFTFSETWMSWVRQAPGKGLEWVGLIKDKNSNYEANYAESVKGRFTISRDDSKRRVYLQMYTLRDQDTATYYCTSHEDFYYYSSYYFDYWGQGVMVTVSS VL: DIVLTQSPATLSVTPGESVSLSCRASQGISTSIHWYQQKSNESPRLLIKYASQSMSGIPSRFSGSGSGTDFTLRINRVESEDFSVYYCQQSYNLPLTFGSGTKLEIKR	7.7 pIC50 (M)
94-1311E (antibody, V domains shown) VH: EVQLQQSGAGLVRPRTSVRLSCKISGDSITAYYVHFVKQRPGQGLEWIGRIDPEDDSTKYSEKFKNKATLTADVSSSTAYLILSSLTSDDSATYFCSTLTGLDYWGQGVMVTVSS VL: DIQMTQSPPVLSASVGDRVTLSCKASQSVHNKLDWYQQKHGEAPKLLIYYTHNLQTGIPSRFSGSGSGSDYTLTISSLRAEDVATYYCFQYYSGWTFGGGTKLEMKR	7.9 pIC50 (M)
96-1403F (antibody, IgG2b, V domains shown) VH: EVQLVETGGGLVRPGSSLKLSCATSGFTFSDTWMSWVRQAPGKGLEWVALIKDKNSNSEANYAESIKGRFTISRDDSKSRVYLQMNTLRDQDTATYYCTRHEDFYYYSGYYFDYWGQGVMVTVSS VL: DIVLTQSPPTLSVTPGESVSLSCRASQGISTSIHWYQQRSNESPRLLIKYASQSIAGIPSRFSGSGSGTDFILSINRVESEDFSVYYCQQTYSLPLTFGPGTKLEVKR	7 pIC50 (M)
50-0704C (antibody, IgG2b, V domains shown) VH: EVQLVGSGGGLVQPGRSMKLSCEASGFTFSNHYMAWVRQAPTKGLEWVATISTGGGNTYYRDSVKGRFTISRDNARSTLSLQMDSLRSEDTATYYCARQDYSNYMGGFAYWGQGTLVTVSS VL: QFVLTQPNSVSTNLGSTVKLSCTRSIGNIGNNYVNWYKQYEGRSPTTMIYRDDERPDGVPDRFSGSIDRSSNSALLTINSVQTEDEADYFCQSFSSGIFIFGGGTKLTVL	7.6 pIC50 (M)
89-1207D (antibody, IgG2b, V domains shown) VH: EVQLVGSGGGLVQPGRSMKLSCEASGFTFSNHYMAWVRQAPTKGLEWVATISTGGGNTYYRDSVKGRFTISRDNARSILSLQMDSLRSEDTATYYCARQDYSNYMGGFAYWGQGTLVTVSS VL: QFVLTQPNSVSTNLGSTVKLSCTRSIGNIGNNYVNWYKQYEGRSPTTMIYRDDERPDGVPDRFSGSIDRSSNSALLTINNVQTEDEADYFCQSFSSGMFIFGGGTKLTVL	7.6 pIC50 (M)
33-0503E (antibody, IgG2b, V domains shown) VH: EVQLVESGGGLVRPGGSMKLSCGASGFIFDNYYMTWVRQAPTKGLEWVASISSSGGNTYYRDSVRGRFTISRDNAGNTLSLQMGSLRAEDTATYHCAKEGYRGRYFDYWGQGVMVTVSS VL: QVVLTQPNSVSTNLGSTVKLSCKRTTGNIGSNYVNWYQQHEGRSPTTMIYRDDERPDGVPDRFSGSIDRSSNSALLTINNVQTEDEAEYFCQSYSSGIIFGGGTKLTVL	7.4 pIC50 (M)

Documented pIC50, S1P transport inhibition (LC-MS/MS of S1P) of 84-1111F (antibody, IgG2b, V domains shown) VH: EVQVVESGGGLVQPGRSMKLSCAALGFTFRDYYMAWVRQTPTKGLEWVAAISTGGGNTYYRDSVKGRFTISRDNAKSTLYLKMDSLRSDDTATYYCARNPYGNYFDYWGQGVMVTVSS VL: QFVLSQPNSVSTNLGSTVKLSCKRSTGNIGSNYVHWYQRHEGRSPTTMIYRDDKRPNGVPDRFSGSIDRSSNSALLTINNVQTEDEADYFCQSYSGGMYLFGGGTTLTVL : 8.1 pIC50 (M)

Documented pIC50, S1P transport inhibition (LC-MS/MS of S1P) of 93-1310F (antibody, IgG2b, V domains shown) VH: EVQLVETGGGLVQPGSSLKLSCATSGFTFSDTWMSWVRQAPGKGLEWVALIKDKNSNYEANYAESVKGRFTISRDDSKRRVYLQMFTLRDQDTATYYCTSHEDFYYYSSYYFDYWGHGVMVTVSS VL: DIVLTQSPATLSVTPGESVSLSCRASQGISTSIHWYQQKSNGSPRLLIKYASQSISGIPSRFSGSGSGTDFTLRINRVESEDFSVYYCQQTYSLPLTFGSGTRLEIKR : 7.6 pIC50 (M)

Documented pIC50, S1P transport inhibition (LC-MS/MS of S1P) of 64-0807A (antibody, IgG2b, V domains shown) VH: EVQVVESGGGLVQPGRSMKLSCAALGFTFRDYYMAWVRQTPTKGLEWVAAISTGGGNTYYRDSVKGRFTISRDNAKSTLYLQMDSLRSDDTATYYCARNPYGNYFDYWGQGVMVTVSS VL: QFVLSQPNSVSTNLGSTVKLSCKRSTGNIGSNYVHWYQRHEGRSPTTLIYRDDKRPNGVPDRFSGSIDRSSNSALLTINNVQTEDEADYFCQSYSGGMYLFGGGTKLTVL : 7.5 pIC50 (M)

Documented pIC50, S1P transport inhibition (LC-MS/MS of S1P) of 65-0810G (antibody, IgG2b, V domains shown) VH: EVHLVESGGGLVQPGRSMKLSCTASGFTFNNYYMAWVRQAPTKGLEWVASISTGGGYTYYRDSVKGRFTISRDNTGNTLYLQMDSLRSEDTATYYCARCWELPYWGQGVMVTVSS VL: QFVLTQPNSVSTNLGSTVKLSCRRSSGNIGNNYVNWYRQHEGRSPTTMIYRDDTRPDGVPNRFSGSIDRSSNSALLTINNVRPEDEAYYFCQSYSGSIYIFGGGTKLTVL : 7.4 pIC50 (M)
